The reported measurements were obtained from PubChem BioAssay (NCI).

Each entry below carries its reported GI50.
System: HCT-15 colon
Assay: NCI tumour cell line growth inhibition, 48 h

compound: Cn1cc(C2=C(c3cccc(OCC(O)CO)c3)C(=O)NC2=O)c2ccccc21 (stereo not drawn)
subjectOfTest: HCT-15 colon
GI50: > 25 µM
--
compound: C[C@@H]1CC[C@H]2C(C(O)CCCCC(O)C3=C(C(F)(F)F)O[C@@H]4O[C@@]5(C)CC[C@H]6[C@H](C)CC[C@@H]3[C@@]46OO5)=C(C(F)(F)F)O[C@@H]3O[C@@]4(C)CC[C@@H]1[C@]32OO4 (stereo partly drawn)
subjectOfTest: HCT-15 colon
GI50: 9.79 µM
--
compound: CCOc1ccccc1N=Nc1c(C)[nH]n(-c2nc(-c3ccccc3)cs2)c1=O
subjectOfTest: HCT-15 colon
GI50: > 100 µM

* * *

Below is a list of entries, each paired with its recorded TGI value.
System: SK-OV-3 ovarian
Test: NCI tumour cell line growth inhibition, 48 h

compound: CCN(C(=S)N[C@H](C(=O)N[C@@H](C)C(=O)OC)C(C)C)c1ccccc1
TGI: > 100 µM
//
compound: CC(C)(O)CC(=O)NCCn1ccc2ncnc(Nc3ccc(Oc4cccc(C(F)(F)F)c4)c(Cl)c3)c21
TGI: > 10 µM
//
compound: C/C=C(/C)C(=O)O[C@H](C[C@@H](C)[C@H]1CC(c2ccoc2)OC1=O)[C@@]1(C)C(=O)CCC2O[C@]21C (some centres undefined)
TGI: > 100 µM
//
compound: CC(C)c1cccc2sc(NC(=O)C(=O)C(C#N)c3cccc4ccccc34)nc12 (centres undefined)
TGI: > 100 µM
//
compound: CCc1ccc(NC(=O)COC(=O)c2cc([N+](=O)[O-])ccc2Sc2nnnn2C)cc1
TGI: > 100 µM
//
compound: CC1(c2ccc[n+](Cc3ccccc3)c2)OCCO1
TGI: > 100 µM
//
compound: C=C1C(=O)OC2/C=C(/C)C(OC(C)=O)CC(O)/C(C)=C\C(OC(=O)/C(C)=C\C)C12 (centres undefined)
TGI: > 100 µM
//
compound: O=C(COc1ccc(/C=C2\Oc3ccccc3C2=O)cc1)Nc1nc2c(s1)CCCC2
TGI: > 100 µM
//
compound: NNC(=O)Cn1c2ccc(Br)cc2c2nc3ccccc3nc21
TGI: > 100 µM

* * *

Tested on: ACHN renal
Assay: NCI tumour cell line growth inhibition, 48 h
Listed here are molecules together with their documented TGI.
propertyName: TGI

molecule: Cc1ccc(CNc2c3ccccc3nc3cc(NC(=O)CCN4CCCC4)ccc23)cc1
result: 1.74 µM
--
molecule: NC(=O)c1c(NC(=O)c2ccc3c(c2)OCO3)sc2c1CCC(=O)C2
result: 5.11 µM
--
molecule: CC1(c2ccc[n+](Cc3ccccc3)c2)OCCO1
result: > 100 µM
--
molecule: CC(=O)Nc1ccc(OC2=CCN(C)CC2)cc1
result: > 100 µM
--
molecule: C[Si](C)(C)c1ccc(-c2sc(-c3ccc([Si](C)(C)C)s3)c3c2C[Si]2(C3)Cc3c(-c4ccc([Si](C)(C)C)s4)sc(-c4ccc([Si](C)(C)C)s4)c3C2)s1
result: > 100 µM
--
molecule: Nc1nc(Nc2ccc(C3CCC(N4CCOCC4)CC3)cc2)nn1-c1ccccn1 (stereo not given)
result: > 100 µM
--
molecule: O=c1c2cc(I)ccc2nc(-c2cccs2)n1-c1ccc(O)cc1
result: 22.5 µM
--
molecule: COc1ccc(C(=O)c2cc3c(N)c(C(=O)Nc4cccc5ccccc45)sc3nc2C)cc1
result: > 50 µM
--
molecule: COc1ccc2c(c1)c(CC(=O)O)c(C)n2C(=O)c1ccc(Cl)cc1
result: > 100 µM
--
molecule: COc1ccc(C(=O)C(c2ccc(OC)cc2)C2(O)C(=O)Nc3c2ccc(Cl)c3C)cc1 (stereo not given)
result: > 100 µM
